compounds and their reported normalised viability
system: MDA-MB-231; assay: normalised viability (% of control), CellTiter-Blue; higher = more viable cells (about 100 = DMSO control); conditions: 100 nM; incubation time: 72 h
The answer is to be given in %; state only the numeric part.

# example entries with known answers
> print(dat)
                                   compound  reported.result
1  C1CN1c1nc(N2CC2)nc(N2CC2)n1 [Triethylenemelamine]              115
2  O=C(O)C(=O)O.[NH-][C@@H]1CCCC[C@H]1[NH-].[Pt+2] [Oxaliplatin]               89
3  Nc1nc2[nH]cc(CCc3ccc(C(=O)N[C@@H](CCC(=O)O)C(=O)O)cc3)c2c(=O)[nH]1 [Pemetrexed]             94.9

Asked: Look at this compound and give its reported normalised viability. C[C@H]1C[C@@H]2[C@H]([C@@H](O)C[C@@]3(C)[C@H]2CC[C@]3(O)C(=O)CO)[C@@]2(C)C=CC(=O)C=C12 [Methylprednisolone]
Given back: 120
